Test system: Escherichia coli TOP10
assay-comment: shrunken log2 fold change of peptide-encoding DNA abundance (4.5 h post-induction vs induction); higher = less antimicrobial activity (less host growth inhibition)
measurement-setup: time post-induction: 4.5 h; library: site-saturation at positions 5, 18, 19, 20
Measured shrunken log2 fold change, listed per entry.

{"columns": ["sequence-content", "shrunken log2 fold change"],
 "data": [
  ["RRIRPRPPRLPRPRPRPKNQPRP", -0.108],
  ["RRIRHRPPRLPRPRPRPGYMPRP", -0.49],
  ["RRIRGRPPRLPRPRPRPIMIPRP", 0.0216],
  ["RRIRARPPRLPRPRPRPKNHPRP", -0.125],
  ["RRIRGRPPRLPRPRPRPEEHPRP", 0.131],
  ["RRIRKRPPRLPRPRPRPCQLPRP", -0.0631]
]}

* * *

shrunken log2 fold change for assorted sequences
System: Escherichia coli TOP10;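 further: peptides expressed intracellularly from a pBAD plasmid library in pooled LB shake-flask culture, induced with 0.3% L-arabinose, DNA abundance read by NGS, three biological replicates, DESeq2 with apeglm shrinkage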
assay-comment: shrunken log2 fold change of peptide-encoding DNA abundance (4.5 h post-induction vs induction); higher = less antimicrobial activity (less host growth inhibition)
measurement-setup: time post-induction: 4.5 h; library: site-saturation at positions 5, 18, 19, 20
property: shrunken log2 fold change

{"columns": ["sequence-content", "target-under-test", "assay-result"],
 "data": [
  ["RRIRHRPPRLPRPRPRPAYWPRP", "Escherichia coli TOP10", 2.61],
  ["RRIRTRPPRLPRPRPRPHDEPRP", "Escherichia coli TOP10", 0.00408],
  ["RRIRRRPPRLPRPRPRPFSLPRP", "Escherichia coli TOP10", 0.0919],
  ["RRIRNRPPRLPRPRPRPLCNPRP", "Escherichia coli TOP10", -0.324],
  ["RRIRARPPRLPRPRPRPQDLPRP", "Escherichia coli TOP10", -0.0381],
  ["RRIRNRPPRLPRPRPRPAMVPRP", "Escherichia coli TOP10", -0.0286],
  ["RRIRQRPPRLPRPRPRPKIQPRP", "Escherichia coli TOP10", -0.0232],
  ["RRIRKRPPRLPRPRPRPIDAPRP", "Escherichia coli TOP10", 0.318],
  ["RRIRVRPPRLPRPRPRPPMNPRP", "Escherichia coli TOP10", -0.205],
  ["RRIRERPPRLPRPRPRPSVTPRP", "Escherichia coli TOP10", -0.4],
  ["RRIRKRPPRLPRPRPRPEDEPRP", "Escherichia coli TOP10", 2.15],
  ["RRIRRRPPRLPRPRPRPAKRPRP", "Escherichia coli TOP10", 0.863],
  ["RRIRGRPPRLPRPRPRPQGKPRP", "Escherichia coli TOP10", 0.0794],
  ["RRIRLRPPRLPRPRPRPEITPRP", "Escherichia coli TOP10", -0.11],
  ["RRIRTRPPRLPRPRPRPWVIPRP", "Escherichia coli TOP10", 0.0147],
  ["RRIRCRPPRLPRPRPRPFGQPRP", "Escherichia coli TOP10", -0.442],
  ["RRIRTRPPRLPRPRPRPLHHPRP", "Escherichia coli TOP10", -0.494],
  ["RRIRKRPPRLPRPRPRPKVAPRP", "Escherichia coli TOP10", 1.23],
  ["RRIRHRPPRLPRPRPRPQRAPRP", "Escherichia coli TOP10", 0.205],
  ["RRIRCRPPRLPRPRPRPLFEPRP", "Escherichia coli TOP10", 0.193],
  ["RRIRRRPPRLPRPRPRPTTHPRP", "Escherichia coli TOP10", 0.306],
  ["RRIRWRPPRLPRPRPRPWDSPRP", "Escherichia coli TOP10", -0.287],
  ["RRIRMRPPRLPRPRPRPNTWPRP", "Escherichia coli TOP10", 0.454],
  ["RRIRNRPPRLPRPRPRPIIGPRP", "Escherichia coli TOP10", 0.0444],
  ["RRIRWRPPRLPRPRPRPKMAPRP", "Escherichia coli TOP10", 0.859],
  ["RRIRVRPPRLPRPRPRPTDQPRP", "Escherichia coli TOP10", -0.0162],
  ["RRIRRRPPRLPRPRPRPCICPRP", "Escherichia coli TOP10", -0.0935],
  ["RRIRFRPPRLPRPRPRPCKWPRP", "Escherichia coli TOP10", -0.0168],
  ["RRIRWRPPRLPRPRPRPLEDPRP", "Escherichia coli TOP10", 0.047],
  ["RRIRGRPPRLPRPRPRPLGFPRP", "Escherichia coli TOP10", 0.755],
  ["RRIRSRPPRLPRPRPRPLQKPRP", "Escherichia coli TOP10", 0.0179],
  ["RRIRSRPPRLPRPRPRPNVTPRP", "Escherichia coli TOP10", -0.0212],
  ["RRIRPRPPRLPRPRPRPGCIPRP", "Escherichia coli TOP10", -0.0111],
  ["RRIRDRPPRLPRPRPRPQDSPRP", "Escherichia coli TOP10", 0.00388],
  ["RRIRMRPPRLPRPRPRPDFSPRP", "Escherichia coli TOP10", 0.0199],
  ["RRIRHRPPRLPRPRPRPKYAPRP", "Escherichia coli TOP10", -0.0413],
  ["RRIRLRPPRLPRPRPRPDRDPRP", "Escherichia coli TOP10", -0.154],
  ["RRIRMRPPRLPRPRPRPFWYPRP", "Escherichia coli TOP10", -0.0609],
  ["RRIRPRPPRLPRPRPRPCQEPRP", "Escherichia coli TOP10", -0.0635],
  ["RRIRDRPPRLPRPRPRPTAEPRP", "Escherichia coli TOP10", 1.4],
  ["RRIRARPPRLPRPRPRPIETPRP", "Escherichia coli TOP10", -0.18],
  ["RRIRKRPPRLPRPRPRPGISPRP", "Escherichia coli TOP10", 0.249],
  ["RRIRNRPPRLPRPRPRPICWPRP", "Escherichia coli TOP10", -0.0674],
  ["RRIRIRPPRLPRPRPRPKMIPRP", "Escherichia coli TOP10", -0.379],
  ["RRIRQRPPRLPRPRPRPRLPPRP", "Escherichia coli TOP10", 0.467],
  ["RRIRLRPPRLPRPRPRPQKFPRP", "Escherichia coli TOP10", 0.0452],
  ["RRIRQRPPRLPRPRPRPTLIPRP", "Escherichia coli TOP10", -0.131]
]}

meta.source: the supplement of paper PMC9112550
